Biological target: 14-3-3γ (Homo sapiens)
Construct: made in house; host or cells: E. coli NiCo21 (DE3)
Sequence (P61981 1-247): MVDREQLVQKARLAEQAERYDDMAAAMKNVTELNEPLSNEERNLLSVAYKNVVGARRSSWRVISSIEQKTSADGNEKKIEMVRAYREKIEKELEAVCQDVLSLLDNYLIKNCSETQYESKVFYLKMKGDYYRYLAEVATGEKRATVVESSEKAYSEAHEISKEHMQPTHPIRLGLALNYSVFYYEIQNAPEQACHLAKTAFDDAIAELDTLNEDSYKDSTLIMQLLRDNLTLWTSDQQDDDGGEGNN
Assay: Fluorescence anisotropy (FA) binary binding study: 14-3-3 titrated to fluorescein-labelled peptide
Details: Table S4, point-mutated peptides; FA, 14-3-3 titrated to 10 nM FITC-labelled peptide, HEPES pH 7.4, room temperature, 4PL fit; mean of n = 3; read-out: Affinity Kd
Where a SMILES comes first, the peptide text is derived from it. [ ]: non-standard residue; d: D form. ξ: configuration not given here. Phe(4-NO2) = N[C@@H](Cc1ccc([N+](=O)[O-])cc1)C(=O)O; ξAla(4-thiazolyl) = NC(Cc1cscn1)C(=O)O; pS = N[C@@H](COP(=O)(O)O)C(=O)O; β3hS = N[C@@H](CO)CC(=O)O; Nva = CCC[C@H](N)C(=O)O; βAla = NCCC(=O)O
Parameter Measured: Kd (µM)
Write the answer as a number in µM, unit excluded.

Ask: Please report Kd for the following compound: CCC[C@H](NC(=O)[C@H](N)CCCCN)C(=O)N[C@@H](Cc1ccc([N+](=O)[O-])cc1)C(=O)NC(Cc1cscn1)C(=O)N[C@@H](COP(=O)(O)O)C(=O)N[C@@H](Cc1ccc(O)cc1)C(=O)N[C@@H](CO)CC(=O)NCCC(=O)N[C@@H](Cc1ccc([N+](=O)[O-])cc1)C(=O)N[C@@H](CCCCN)C(N)=O (stereo partly drawn) [4a] (H-[dK][Nva][Phe(4-NO2)][ξAla(4-thiazolyl)][pS]Y[β3hS][βAla][Phe(4-NO2)]K-NH2; N-terminus and C-terminus assumed)
Result: 0.05

====

Target: 14-3-3γ (Homo sapiens)
Construct: made in house; host or cells: E. coli NiCo21 (DE3)
Assay: Isothermal titration calorimetry (ITC) of 14-3-3 binding to peptide
Settings: Table S6; ITC, 25 °C; run 2
Where a SMILES comes first, the peptide text is derived from it. [ ]: non-standard residue; d: D form. ξ: configuration not given here. Phe(4-NO2) = N[C@@H](Cc1ccc([N+](=O)[O-])cc1)C(=O)O; ξAla(4-thiazolyl) = NC(Cc1cscn1)C(=O)O; pS = N[C@@H](COP(=O)(O)O)C(=O)O; β3hS = N[C@@H](CO)CC(=O)O; Nva = CCC[C@H](N)C(=O)O; ξβ3hS = NC(CO)CC(=O)O; βAla = NCCC(=O)O
Task for the reader: assign each of the following compounds its reported ΔH.

Ask: Please report ΔH for the following compound: CCC[C@H](NC(=O)[C@H](N)CCCCN)C(=O)N[C@@H](Cc1ccc([N+](=O)[O-])cc1)C(=O)NC(Cc1cscn1)C(=O)N[C@@H](COP(=O)(O)O)C(=O)N[C@@H](Cc1ccc([N+](=O)[O-])cc1)C(=O)N[C@@H](CO)CC(=O)NCCC(=O)N[C@@H](C)C(=O)N[C@@H](CCCCN)C(N)=O (stereo partly drawn) [5c] (H-[dK][Nva][Phe(4-NO2)][ξAla(4-thiazolyl)][pS][Phe(4-NO2)][β3hS][βAla]AK-NH2; N-terminus and C-terminus assumed)
Result: -3,539 kcal mol^-1

Ask: Please report ΔH for the following compound: CCC[C@H](NC(=O)[C@H](N)CCCCN)C(=O)N[C@@H](Cc1ccc([N+](=O)[O-])cc1)C(=O)NC(Cc1cscn1)C(=O)N[C@@H](COP(=O)(O)O)C(=O)N[C@@H](C)C(=O)N[C@@H](CO)CC(=O)NCCC(=O)N[C@@H](Cc1ccc([N+](=O)[O-])cc1)C(=O)N[C@@H](CCCCN)C(N)=O (stereo partly drawn) [4c] (H-[dK][Nva][Phe(4-NO2)][ξAla(4-thiazolyl)][pS]A[β3hS][βAla][Phe(4-NO2)]K-NH2; N-terminus and C-terminus assumed)
Result: -4,649 kcal mol^-1

Ask: Please report ΔH for the following compound: CCC[C@H](NC(=O)[C@H](N)CCCCN)C(=O)N[C@@H](Cc1ccc([N+](=O)[O-])cc1)C(=O)NC(Cc1cscn1)C(=O)N[C@@H](COP(=O)(O)O)C(=O)N[C@@H](Cc1ccc([N+](=O)[O-])cc1)C(=O)N[C@@H](CO)CC(=O)NCCC(=O)N[C@@H](Cc1ccc(O)cc1)C(=O)N[C@@H](CCCCN)C(N)=O (stereo partly drawn) [5a] (H-[dK][Nva][Phe(4-NO2)][ξAla(4-thiazolyl)][pS][Phe(4-NO2)][β3hS][βAla]YK-NH2; N-terminus and C-terminus assumed)
Result: -4,328 kcal mol^-1

Ask: Please report ΔH for the following compound: CCC[C@H](NC(=O)[C@H](N)CCCCN)C(=O)N[C@@H](Cc1ccc([N+](=O)[O-])cc1)C(=O)NC(Cc1cscn1)C(=O)N[C@@H](COP(=O)(O)O)C(=O)N[C@@H](Cc1ccc([N+](=O)[O-])cc1)C(=O)NC(CO)CC(=O)NCCC(=O)N[C@@H](Cc1ccc([N+](=O)[O-])cc1)C(=O)N[C@@H](CCCCN)C(N)=O (stereo partly drawn) [compound 1] (H-[dK][Nva][Phe(4-NO2)][ξAla(4-thiazolyl)][pS][Phe(4-NO2)][ξβ3hS][βAla][Phe(4-NO2)]K-NH2)
Result: -10,45 kcal mol^-1

Ask: Please report ΔH for the following compound: CCC[C@H](NC(=O)[C@H](N)CCCCN)C(=O)N[C@@H](Cc1ccc([N+](=O)[O-])cc1)C(=O)NC(Cc1cscn1)C(=O)N[C@@H](COP(=O)(O)O)C(=O)N[C@@H](Cc1ccc([N+](=O)[O-])cc1)C(=O)N[C@@H](CO)CC(=O)NCCC(=O)N[C@@H](Cc1ccccc1)C(=O)N[C@@H](CCCCN)C(N)=O (stereo partly drawn) [5b] (H-[dK][Nva][Phe(4-NO2)][ξAla(4-thiazolyl)][pS][Phe(4-NO2)][β3hS][βAla]FK-NH2; N-terminus and C-terminus assumed)
Result: -4,725 kcal mol^-1

Ask: Please report ΔH for the following compound: CCC[C@H](NC(=O)[C@H](N)CCCCN)C(=O)N[C@@H](Cc1ccc([N+](=O)[O-])cc1)C(=O)NC(Cc1cscn1)C(=O)N[C@@H](COP(=O)(O)O)C(=O)N[C@@H](Cc1ccccc1)C(=O)N[C@@H](CO)CC(=O)NCCC(=O)N[C@@H](Cc1ccc([N+](=O)[O-])cc1)C(=O)N[C@@H](CCCCN)C(N)=O (stereo partly drawn) [4b] (H-[dK][Nva][Phe(4-NO2)][ξAla(4-thiazolyl)][pS]F[β3hS][βAla][Phe(4-NO2)]K-NH2; N-terminus and C-terminus assumed)
Result: -6,783 kcal mol^-1

Ask: Please report ΔH for the following compound: CCC[C@H](NC(=O)[C@H](N)CCCCN)C(=O)N[C@@H](Cc1ccc([N+](=O)[O-])cc1)C(=O)N[C@@H](C)C(=O)N[C@@H](COP(=O)(O)O)C(=O)N[C@@H](Cc1ccc([N+](=O)[O-])cc1)C(=O)N[C@@H](CO)CC(=O)NCCC(=O)N[C@@H](Cc1ccc([N+](=O)[O-])cc1)C(=O)N[C@@H](CCCCN)C(N)=O [3a] (H-[dK][Nva][Phe(4-NO2)]A[pS][Phe(4-NO2)][β3hS][βAla][Phe(4-NO2)]K-NH2; N-terminus and C-terminus assumed)
Result: -6,809 kcal mol^-1

====

Target: 14-3-3γ (Homo sapiens)
Construct: made in house; host or cells: E. coli NiCo21 (DE3)
Experiment: Fluorescence anisotropy (FA) binary binding study: 14-3-3 titrated to fluorescein-labelled peptide
Settings: FA, ΔG relative to the previously truncated peptide
Where a SMILES comes first, the peptide text is derived from it. [ ]: non-standard residue; d: D form. The star is where a group is joined. FITC = O=C1OC2(c3ccc(O)cc3Oc3cc(O)ccc32)c2ccc(NC(=S)*)cc21; Phe(4-NO2) = N[C@@H](Cc1ccc([N+](=O)[O-])cc1)C(=O)O; pS = N[C@@H](COP(=O)(O)O)C(=O)O; β3hS = N[C@@H](CO)CC(=O)O; βAla = NCCC(=O)O
Parameter Measured: individual ΔΔG of removed residue (kcal/mol)
Write the answer as a number in kcal/mol, unit excluded.

Ask: Please report individual ΔΔG of removed residue for the following compound: C[C@H](NC(=O)[C@H](CCCCN)NC(=O)[C@H](Cc1ccc([N+](=O)[O-])cc1)NC(=O)CCNC(=O)C[C@H](CO)NC(=O)[C@H](Cc1ccc([N+](=O)[O-])cc1)NC(=O)[C@@H](N)COP(=O)(O)O)C(=O)N[C@@H](CCCCNC(=S)Nc1ccc2c(c1)C(=O)OC21c2ccc(O)cc2Oc2cc(O)ccc21)C(N)=O [2d] (H-[pS][Phe(4-NO2)][β3hS][βAla][Phe(4-NO2)]KAK(FITC)-NH2)
Result: 2.2
